IC50 listing for selected compounds.
EXPERIMENTAL_SYSTEM: UniProt:P27338
Sequence (P27338 whole entry): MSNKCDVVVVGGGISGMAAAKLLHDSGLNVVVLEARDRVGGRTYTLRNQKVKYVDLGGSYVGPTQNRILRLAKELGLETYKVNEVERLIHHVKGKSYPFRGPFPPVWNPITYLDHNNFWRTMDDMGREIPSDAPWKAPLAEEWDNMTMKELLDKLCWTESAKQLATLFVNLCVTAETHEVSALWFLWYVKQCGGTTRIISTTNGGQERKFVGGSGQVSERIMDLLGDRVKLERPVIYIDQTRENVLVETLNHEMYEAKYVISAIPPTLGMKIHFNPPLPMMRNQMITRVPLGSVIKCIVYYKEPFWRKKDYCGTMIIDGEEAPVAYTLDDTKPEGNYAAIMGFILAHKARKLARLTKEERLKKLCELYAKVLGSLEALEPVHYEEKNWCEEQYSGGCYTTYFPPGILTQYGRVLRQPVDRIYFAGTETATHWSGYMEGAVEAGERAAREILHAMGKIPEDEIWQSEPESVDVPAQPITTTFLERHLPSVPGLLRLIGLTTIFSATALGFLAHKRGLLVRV
PROTOCOL_TEXT: hMAO-B inhibition, recombinant enzyme, kynuramine substrate, fluorescence
TEST_CONDITIONS: mean ± SD of triplicate determinations

STRUCTURE_AS_SMILES	IC50
C#CCOc1ccc2ccc(=O)oc2c1	5790 nM
CC#CCOc1ccc2ccc(=O)oc2c1	250 nM
C#CCCCOc1cc(=O)oc2ccccc12	> 100000 nM
C#CCCCCOc1ccc2ccc(=O)oc2c1	7 nM
C#CCCCOc1ccc2ccc(=O)oc2c1	510 nM
CCC#CCOc1ccc2ccc(=O)oc2c1	8 nM

Sourced from paper PMC10740956
